Assay: inhibitors of TNFa-induced NFkB p65 translocation, primary screen, imaging, HUVEC, MLSMR starter and 10KST1 sets (AID 438);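 also: compound added about 3h40 before a 20 min TNFalpha stimulation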
Conditions: HUVEC TNFa-induced p65 nuclear translocation; measured here: nuclei count (cytotoxicity indicator), at 2.08 µM
Value kind: cell count
Please reply with the number alone, leaving off any unit.

Consider the following illustrative entries.
[
  {
    "Compound": "CC(C)c1ccc(S(=O)(=O)N2CCN(CCC(=O)Nc3ccc(N(C)C)cc3)CC2)cc1",
    "cell count": 412
  },
  {
    "Compound": "COc1ccccc1NC(=O)N1CCN(c2ccccc2F)CC1",
    "cell count": 209
  },
  {
    "Compound": "Cn1c(Cc2ccccc2)nnc1SCC(=O)c1ccc(Br)s1",
    "cell count": 180
  }
]

I have this compound here, "Cn1c(=O)c2c(nc(NCCCO)n2CCc2ccccc2)n(C)c1=O" , and I need its recorded cell count. 422

I have this compound here, Cc1cc(C(F)(F)F)nc(SCC(=O)NC2=NC(=O)C(C)S2)n1 (stereo unspecified) , and I need its recorded cell count. 370

I have this compound here, "COc1ccc(-c2nnc(-c3ccc(N)cc3)o2)cc1" , and I need its recorded cell count. 332

---

Assay: TLR3 IRF3 reporter activation blockers – cell-based, poly I:C stimulus, luciferase, 10K MLSCN set, primary screen (AID 602277)
Details: HEK293-TLR3 RL24 IRF3 luciferase reporter, at 10 µM, stronger effect = higher value
Tick t if inhibition is 10% or greater. Tick f if inhibition is less than 10%.

Example cases with answers are listed next.
[
  {
    "Compound": "CC1=CCC2C(=O)N(c3nc(C)cc(C)n3)C(=O)C2C1 (stereo unspecified)",
    "Assigned class": "t"
  },
  {
    "Compound": "CC(=O)Nc1ccc2c(c1)nc(CCNC(=O)c1ccccc1)n2C",
    "Assigned class": "t"
  },
  {
    "Compound": "O=C(Nc1ccc(NC(=O)c2ccco2)nc1)c1cccnc1",
    "Assigned class": "f"
  },
  {
    "Compound": "O=S(=O)(NC1CCCC1)c1ccc(S(=O)(=O)N2CCc3ccccc32)cc1",
    "Assigned class": "f"
  },
  {
    "Compound": "CC1Cc2ccccc2N1C(=O)C12CCC(C)(C(=O)C1)C2(C)C (stereo unspecified)",
    "Assigned class": "f"
  }
]

Decide: is the reported value of inhibition for "O=c1cc(CSc2ccccn2)c2ccccc2[nH]1" equal to or greater than 10%? t

Decide: is the reported value of inhibition for CC1CCc2nn(CC(=O)NCc3ccc4c(c3)OCO4)cc2C1 (stereo unspecified) equal to or greater than 10%? t

Decide: is the reported value of inhibition for O=C(Nc1ccc(Cl)c(C(F)(F)F)c1)N1CCCC(O)C1 (stereo unspecified) equal to or greater than 10%? f

Decide: is the reported value of inhibition for "O=C(Nc1cccnc1)c1cccc(NC(=O)c2ccco2)c1" equal to or greater than 10%? t

Decide: is the reported value of inhibition for COc1ccc(C2CC(c3ccccc3)Nc3nc(NC(=O)c4cccs4)nn32)cc1 (stereo unspecified) equal to or greater than 10%? t

Decide: is the reported value of inhibition for CC(C)CCNC(=O)C(C)N(Cc1ccc(F)cc1)C(=O)c1ccc(CN2CCCCC2)o1 (stereo unspecified) equal to or greater than 10%? t

Decide: is the reported value of inhibition for "CCCCn1c(NCCC)nc2c1c(=O)[nH]c(=O)n2C" equal to or greater than 10%? t

Decide: is the reported value of inhibition for "Cc1ccc(-n2ncc3c(=O)[nH]c(SCC(=O)N4CCN(c5ccccc5)CC4)nc32)cc1" equal to or greater than 10%? t

Decide: is the reported value of inhibition for "COCCCn1nnnc1SCC(=O)Nc1nc(C)c(C)s1" equal to or greater than 10%? f

Decide: is the reported value of inhibition for O=C(CCC1COc2ccccc2O1)NCC1COc2ccccc2O1 (stereo unspecified) equal to or greater than 10%? t

Decide: is the reported value of inhibition for Cc1ccc(C(C(=O)NC(C)(C)C)N(C(=O)c2csnn2)c2cccc(F)c2)o1 (stereo unspecified) equal to or greater than 10%? t

Decide: is the reported value of inhibition for CCOC(=O)C1CCCN(Cc2nc(N)nc(Nc3ccc(C)cc3)n2)C1 (stereo unspecified) equal to or greater than 10%? t

Decide: is the reported value of inhibition for "Cc1ccc(S(=O)(=O)NC(=O)c2cc(C)n(CCCn3ccnc3)c2C)cc1" equal to or greater than 10%? t

Decide: is the reported value of inhibition for COC(=O)CN1C(=O)CC(C)(C)S(=O)c2ccccc21 (stereo unspecified) equal to or greater than 10%? t

Decide: is the reported value of inhibition for "N#CCC(=O)N1CCn2c1nc1ccccc12" equal to or greater than 10%? t

Decide: is the reported value of inhibition for "CCCC1(CCC)NC(=O)NC1=O" equal to or greater than 10%? t

---

Molecular target: Alpha-2C adrenergic receptor (Homo sapiens)
Assay: compounds altering alpha2C-coupled GIRK flux – cell-based, HEK293 alpha2C/GIRK1/2, thallium flux, primary screen (AID 624);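 also: slope of fluorescence ratio to pre-addition baseline per second over 15 to 24 s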
Conditions: thallium flux BTC fluorescence, at 10 µM, actives lie on both sides
Value kind: slope
Please reply with the number alone, leaving off any unit.

Consider the following illustrative entries.
[
  {
    "Compound": "CC1(C)CC(=O)C=C(Nc2ccc(OCC(F)(F)C(F)F)cc2)C1",
    "Assayed system": "Alpha-2C adrenergic receptor (Homo sapiens)",
    "slope": 0.00531
  },
  {
    "Compound": "Cc1c(C(=O)OC2CCCCC2)[nH]c2c1C(=O)CC(C)(C)C2",
    "Assayed system": "Alpha-2C adrenergic receptor (Homo sapiens)",
    "slope": 0.00193
  },
  {
    "Compound": "CCCC(=O)N1CC(=O)Nc2ccc(C)cc2C1c1ccc(F)cc1 (configuration not stated)",
    "Assayed system": "Alpha-2C adrenergic receptor (Homo sapiens)",
    "slope": 0.00518
  },
  {
    "Compound": "COc1cccc(C2C(C(N)=O)=C(C)Nc3nc(-c4ccccc4Cl)nn32)c1 (configuration not stated)",
    "Assayed system": "Alpha-2C adrenergic receptor (Homo sapiens)",
    "slope": 0.00547
  },
  {
    "Compound": "O=C(CSc1oc(-c2ccco2)nc1S(=O)(=O)c1ccccc1)NCC1CCCO1 (configuration not stated)",
    "Assayed system": "Alpha-2C adrenergic receptor (Homo sapiens)",
    "slope": 0.00481
  }
]

Now take the following compound into account.
I have this compound here, "Cc1[nH]c(C(=O)N2CCCCC2)c(C)c1C(=O)NC1CCCCC1" , and I need its recorded slope. 0.00631

---

# fluorescence slope values compiled below
Biological target: Voltage-gated potassium channel subunit beta-2 (Rattus norvegicus) (UniProt P62483)
Sequence (P62483 whole entry, looked up): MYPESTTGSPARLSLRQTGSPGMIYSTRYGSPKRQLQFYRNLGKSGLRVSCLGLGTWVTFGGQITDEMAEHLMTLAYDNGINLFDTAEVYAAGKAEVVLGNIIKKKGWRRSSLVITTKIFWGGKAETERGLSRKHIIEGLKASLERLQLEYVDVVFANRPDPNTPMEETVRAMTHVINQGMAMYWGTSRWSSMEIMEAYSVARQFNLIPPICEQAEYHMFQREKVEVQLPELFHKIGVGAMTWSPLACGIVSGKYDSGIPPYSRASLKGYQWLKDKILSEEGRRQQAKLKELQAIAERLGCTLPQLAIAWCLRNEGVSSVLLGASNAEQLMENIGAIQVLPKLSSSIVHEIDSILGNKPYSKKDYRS
Test: inhibitors of rat Kvbeta2 reductase activity – biochemical, NADPH fluorescence, primary screen (AID 622);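 also: slope of raw intensity against log time taken from 70 to 1610 s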
Details: recombinant KvBeta, 4-cyanobenzaldehyde reduction, at 10 µM, stronger effect = higher value
Please reply with the number alone, leaving off any unit.

[
  {
    "Compound": "O=S(=O)(c1cccc(-c2nnco2)c1)N1CCCC1",
    "Recorded result": -0.519
  },
  {
    "Compound": "O=C(Nc1cccnc1)c1ccc2c(c1)C(=O)N(Cc1cccnc1)C2=O",
    "Recorded result": -0.615
  },
  {
    "Compound": "Fc1ccccc1C(c1nnnn1Cc1ccc2c(c1)OCO2)N1CCN(Cc2ccccc2)CC1 (configuration not stated)",
    "Recorded result": -0.631
  },
  {
    "Compound": "CCN(CCCNS(=O)(=O)c1ccc2c(c1)oc(=O)n2C)c1cccc(C)c1",
    "Recorded result": -0.574
  },
  {
    "Compound": "O=C(NCc1cccs1)c1cc2c(s1)CCCC2",
    "Recorded result": -0.479
  }
]

I have this compound here, Cc1cc(C)cc(N2C(=O)CC(N3CCOCC3)C2=O)c1 (configuration not stated) , and I need its recorded fluorescence slope. -0.355

I have this compound here, "Nc1nc(SCc2nc3scc(-c4cccs4)c3c(=O)[nH]2)n[nH]1" , and I need its recorded fluorescence slope. -0.432

---

Experiment: reduction of polyQ htt aggregates in cells – imaging, exon1htt(103Q)mCFP cells, high-content imaging, primary screen (AID 483);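 also: compound exposure lasted 3 days before fixation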
Details: exon1htt(103Q)mCFP cell line, aggregate imaging, at 2 µM; stronger effect = higher value
Value kind: inhibition of aggregation (%)
Write down the numeric answer in % and omit the unit.

[
  {
    "Compound": "Cc1ccc(NCC(O)C(O)C(O)CO)cc1C (stereo not given)",
    "Display unit": "%",
    "inhibition of aggregation": 1.3
  },
  {
    "Compound": "Cc1c(Cl)cccc1N1C(=O)c2ccccc2C1=O",
    "Display unit": "%",
    "inhibition of aggregation": -0.9
  }
]

I have this compound here, "O=S(=O)(c1ccc(Br)s1)N1CCN(c2ccccc2)CC1" , and I need its recorded inhibition of aggregation. 0.1

I have this compound here, "Cn1c(=O)c(=O)n(C)c2cc(S(=O)(=O)N3CCCCC3)ccc21" , and I need its recorded inhibition of aggregation. 22.5

I have this compound here, "COC(=O)c1ccc2c(c1)C(=O)N(C1CCCCC1)C2=O" , and I need its recorded inhibition of aggregation. -2.4
